Source listed as the supplement of paper PMC9492666.

Tested on: MDA-MB-231
Test: relative cell viability, compound + erastin, vs DMSO (fraction of DMSO control); higher = less growth inhibition;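 note: viability read by CCK-8 kit in 96-well plates, part of a combination screen pairing lipid-metabolism-targeting compounds with erastin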
Settings: 72 h
// classify: if (relative cell viability < 0.6) true else false

O=C(NNc1ccccc1)c1ccncc1 [PluriSln 1] + CCOc1ccccc1-n1c(C(C)N2CCN(C(=O)COc3ccc(Cl)cc3)CC2)nc2ccccc2c1=O ... false

is_below(relative cell viability, 0.6) for C=CCc1ccc(O)c(-c2cc(CC=C)ccc2O)c1 [Magnolol] + CCOc1ccccc1-n1c(C(C)N2CCN(C(=O)COc3ccc(Cl)cc3)CC2)nc2ccccc2c1=O ?
false

relative cell viability strictly < 0.6 for this compound? CN1c2ccccc2C(=O)Nc2cnc(Nc3ccc(N4CCC(O)CC4)cc3)nc21 + CCOc1ccccc1-n1c(C(C)N2CCN(C(=O)COc3ccc(Cl)cc3)CC2)nc2ccccc2c1=O
false

Say whether its relative cell viability is strictly beneath 0.6. Entry: CN1CCN(C(=O)C2C(C(=O)O)[C@H]3CC[C@@H]2O3)CC1 (stereo not given in full) + CCOc1ccccc1-n1c(C(C)N2CCN(C(=O)COc3ccc(Cl)cc3)CC2)nc2ccccc2c1=O
true

###

System: HCC1937
Test: relative cell viability, compound + erastin, vs DMSO (fraction of DMSO control); higher = less growth inhibition
Conditions: 72 h
measured_attribute: relative cell viability
Format: numeric value only, no unit, no commentary.

Example entries begin here.
O=S(=O)(O)c1ccc2cc(N=Nc3cc(S(=O)(=O)O)c4cccnc4c3O)ccc2c1 + CCOc1ccccc1-n1c(C(C)N2CCN(C(=O)COc3ccc(Cl)cc3)CC2)nc2ccccc2c1=O ... 0.741
CC(C)=CCC[C@](C)(O[C@@H]1O[C@H](CO)[C@@H](O)[C@H](O)[C@H]1O)[C@H]1CC[C@]2(C)[C@@H]1[C@H](O)C[C@@H]1[C@@]3(C)CC[C@H](O[C@@H]4O[C@H](CO)[C@@H](O)[C@H](O)[C@H]4O[C@@H]4O[C@H](CO)[C@@H](O)[C@H](O)[C@H]4O)C(C)(C)[C@@H]3CC[C@]12C [Ginsenoside Rd] + CCOc1ccccc1-n1c(C(C)N2CCN(C(=O)COc3ccc(Cl)cc3)CC2)nc2ccccc2c1=O ... 0.355
CC(C)(Oc1ccc(Cl)cc1)C(=O)O [Clofibric acid] + CCOc1ccccc1-n1c(C(C)N2CCN(C(=O)COc3ccc(Cl)cc3)CC2)nc2ccccc2c1=O ... 0.923
CC1CC(OC(=O)C(O)c2ccccc2)CC(C)(C)C1 (stereo not given) [Cyclandelate] + CCOc1ccccc1-n1c(C(C)N2CCN(C(=O)COc3ccc(Cl)cc3)CC2)nc2ccccc2c1=O ... 0.828

From here, focus on the item given below.
Suppose we examine the compound CCC1C(O)C2C3CCC(C(C)CCO)C3(C)CCC2C2(C)CCC(O)CC12 (stereo not given) + CCOc1ccccc1-n1c(C(C)N2CCN(C(=O)COc3ccc(Cl)cc3)CC2)nc2ccccc2c1=O ; what relative cell viability value has been reported?
0.656

###

Test system: HCC1937
Experiment: relative cell viability, compound + erastin, vs DMSO (fraction of DMSO control); higher = less growth inhibition
Conditions: 72 h
measured_attribute: relative cell viability
# respond with the number and nothing more

Use these answered entries as a reference point.
CN(C(=O)n1cnc(-c2ccc[n+]([O-])c2)c1)C1CCCCC1 + CCOc1ccccc1-n1c(C(C)N2CCN(C(=O)COc3ccc(Cl)cc3)CC2)nc2ccccc2c1=O ... 0.427
CC(C)=CCC(O)C1=CC(=O)c2c(O)ccc(O)c2C1=O (single isomer, unassigned; (+)) [(+)-Shikonin] + CCOc1ccccc1-n1c(C(C)N2CCN(C(=O)COc3ccc(Cl)cc3)CC2)nc2ccccc2c1=O ... 0.159
CCN(CC)CCN(Cc1ccc(-c2ccc(C(F)(F)F)cc2)cc1)C(=O)Cn1c(SCc2ccc(F)cc2)nc(=O)c2c1CCC2 [Darapladib] + CCOc1ccccc1-n1c(C(C)N2CCN(C(=O)COc3ccc(Cl)cc3)CC2)nc2ccccc2c1=O ... 0.0574
COc1ccc(Nc2ccn(-c3ccccc3)n2)cc1 + CCOc1ccccc1-n1c(C(C)N2CCN(C(=O)COc3ccc(Cl)cc3)CC2)nc2ccccc2c1=O ... 0.686
NC(N)=N/N=C/c1cccc(Cl)c1Cl [Raphin1 acetate] + CCOc1ccccc1-n1c(C(C)N2CCN(C(=O)COc3ccc(Cl)cc3)CC2)nc2ccccc2c1=O ... 0.718

Which measured relative cell viability value corresponds to C[C@@H]1OCC2(CCN(c3cnc(Sc4ccnc(N)c4Cl)c(N)n3)CC2)[C@@H]1N + CCOc1ccccc1-n1c(C(C)N2CCN(C(=O)COc3ccc(Cl)cc3)CC2)nc2ccccc2c1=O ?
0.553

What value of relative cell viability has been reported for the following compound? O=C(OC(C(F)(F)F)C(F)(F)F)N1CCC(C(O)(c2ccc3c(c2)OCO3)c2ccc3c(c2)OCO3)CC1 + CCOc1ccccc1-n1c(C(C)N2CCN(C(=O)COc3ccc(Cl)cc3)CC2)nc2ccccc2c1=O
0.53

# query: relative cell viability of entry CC(C)=CCC[C@](C)(O)[C@H]1CC[C@]2(C)[C@@H]1[C@H](O)C[C@@H]1[C@@]3(C)CC[C@H](O)C(C)(C)[C@@H]3[C@@H](O)C[C@]12C [(20S)-Protopanaxatriol] + CCOc1ccccc1-n1c(C(C)N2CCN(C(=O)COc3ccc(Cl)cc3)CC2)nc2ccccc2c1=O
0.772

Need relative cell viability, item C[C@]12C=CC(=O)N[C@@H]1CC[C@@H]1[C@@H]2CC[C@]2(C)[C@@H](C(=O)Nc3cc(C(F)(F)F)ccc3C(F)(F)F)CC[C@@H]12 [Dutasteride] + CCOc1ccccc1-n1c(C(C)N2CCN(C(=O)COc3ccc(Cl)cc3)CC2)nc2ccccc2c1=O
0.573

Using the record for CC(C)Cc1ccc([C@H](C)C(=O)O)cc1 [Dexibuprofen] + CCOc1ccccc1-n1c(C(C)N2CCN(C(=O)COc3ccc(Cl)cc3)CC2)nc2ccccc2c1=O , report its relative cell viability.
0.901

May I ask what relative cell viability has been recorded for CCCCCCCCCCCC1=C(O)C(=O)C=C(O)C1=O [Embelin] + CCOc1ccccc1-n1c(C(C)N2CCN(C(=O)COc3ccc(Cl)cc3)CC2)nc2ccccc2c1=O ?
0.72

Which relative cell viability value is on record for Cc1cc(C)c(S(=O)(=O)N(CCc2cccc(Br)c2)Cc2ccc(-c3cccc(S(C)(=O)=O)c3)cc2)c(C)c1 + CCOc1ccccc1-n1c(C(C)N2CCN(C(=O)COc3ccc(Cl)cc3)CC2)nc2ccccc2c1=O ?
0.537
